# credit: PubChem BioAssay

# experimentDescription: OD615 S. cerevisiae growth inhibition, permissive medium, pilot counter-assay, permissive growth control for S. cerevisiae lifespan shortening project (AID 705)
# conditionSet: OD615, 24 h, at 10 µM, active compounds read high
resultType: growth inhibition (%)
Write the answer as a number in %, unit excluded.

Incoming: // returns reported growth inhibition for input CCOC(=O)c1ccc(CSc2n[nH]c(C)n2)o1
Outgoing: -3.09

Incoming: // returns reported growth inhibition for input CCOC(=O)c1ccccc1NC(=O)Cn1cnc2c(nnn2-c2ccc(C)cc2)c1=O
Outgoing: -7.68

Incoming: // returns reported growth inhibition for input COc1ccccc1NC(=O)N1CCN(c2ccccn2)CC1
Outgoing: -12.1

Incoming: // returns reported growth inhibition for input COc1ccc(N2CSC3=C(C#N)C(c4ccc(OC)c(OC)c4)CC(=O)N3C2)c(OC)c1 (stereo unspecified)
Outgoing: 18.8

Incoming: // returns reported growth inhibition for input CCC(C)Sc1nc2c(cnn2-c2ccc(C)c(C)c2)c(=O)[nH]1 (stereo unspecified)
Outgoing: -5.49

Incoming: // returns reported growth inhibition for input COc1cccc(-n2c(Cc3cc(=O)[nH]c(=O)[nH]3)nnc2SCc2cccnc2)c1
Outgoing: -7.23

Incoming: // returns reported growth inhibition for input COc1ccc(NC(C)=O)cc1NC(=O)CSc1nnc(-c2ccncc2)n1C
Outgoing: -5.57

Incoming: // returns reported growth inhibition for input COc1cc(NC(=O)CCCC(=O)OCC(F)(F)C(F)F)nc(OC)n1
Outgoing: -5.42

Incoming: // returns reported growth inhibition for input CCC(CO)Nc1ncnc2c1cnn2-c1ccc(OC)cc1 (stereo unspecified)
Outgoing: -7.48

Incoming: // returns reported growth inhibition for input COC(=O)c1ccc(NC(=O)c2cccc(OC)c2)cc1
Outgoing: -1.57

Incoming: // returns reported growth inhibition for input O=C(NCCC1=CCCCC1)c1ccc2c(=O)n3c(nc2c1)CCCCC3
Outgoing: -10.1

Incoming: // returns reported growth inhibition for input CCOCCn1c(SCc2ccc(C)cc2)nc2c1c(=O)[nH]c(=O)n2C
Outgoing: -5.33

Incoming: // returns reported growth inhibition for input COc1cccc2cc3c(=O)n(-c4ccccc4)nc-3oc12
Outgoing: -29.6

Incoming: // returns reported growth inhibition for input CCN(CCN(C)C)C(=O)Cn1ncc2c1-c1cc(C)ccc1OC2
Outgoing: -11

Incoming: // returns reported growth inhibition for input CN1CCN(CCCNC(=O)c2cn(C)c3ccc(S(=O)(=O)N(C)C)cc3c2=O)CC1
Outgoing: -0.94

Incoming: // returns reported growth inhibition for input COc1ccc(-c2nc(CS(=O)CC(=O)NC3CCCc4ccccc43)c(C)o2)cc1OC (stereo unspecified)
Outgoing: -8.29

Incoming: // returns reported growth inhibition for input Cc1cc(NC(=O)CN2CCCCC2C)nc2c1c(=O)oc1ccccc12 (stereo unspecified)
Outgoing: 4.45

Incoming: // returns reported growth inhibition for input CCNC(=O)COc1ccc2ccccc2c1
Outgoing: -2.77

Incoming: // returns reported growth inhibition for input O=C(CCCn1c(=O)oc2ccccc21)N1CCc2ccccc2C1
Outgoing: -8.29

Incoming: // returns reported growth inhibition for input Cc1ccc2nc(NC(=O)CCNS(=O)(=O)c3cccs3)sc2c1
Outgoing: -5.57

Incoming: // returns reported growth inhibition for input Cc1ccc(C)c(C(=O)COC(=O)c2ccc(Br)o2)c1
Outgoing: -12.9

Incoming: // returns reported growth inhibition for input CCOc1cccc(=O)c2c(C)n(Cc3ccco3)c(C)c12
Outgoing: -12.4

Incoming: // returns reported growth inhibition for input CC1CCN(C(=O)CSc2ccc3nnc(-c4cccc(F)c4)n3n2)CC1
Outgoing: -0.835

Incoming: // returns reported growth inhibition for input CC1CCCC(NC(=O)CSc2nnnn2C)C1C (stereo unspecified)
Outgoing: -6.17

Incoming: // returns reported growth inhibition for input O=C(CSc1ccc2nnc(-c3ccc(Cl)cc3)n2n1)N1CCN(c2ccccc2)CC1
Outgoing: 20.5

Incoming: // returns reported growth inhibition for input CC(=O)c1c(NC(=O)C(C)C)nc(C)nc1-c1ccccc1
Outgoing: -6.5

Incoming: // returns reported growth inhibition for input O=C(Nc1cccc2ccccc12)N1CCN(c2ccc(F)cc2)CC1
Outgoing: -12.3

Incoming: // returns reported growth inhibition for input COc1cc(C(=O)NCCc2cn3ccccc3n2)cc(OC)c1OC
Outgoing: -9.42

Incoming: // returns reported growth inhibition for input CCOC(=O)c1[nH]c(=O)[nH]c1CSc1nc(C)cc(C)n1
Outgoing: -4.23

Incoming: // returns reported growth inhibition for input CC1(C)CC2CC(C)(CN2C(=O)c2cc(-c3ccccc3O)on2)C1 (stereo unspecified)
Outgoing: -11.4

Incoming: // returns reported growth inhibition for input COCCCNC(=O)Cn1cc2c(n1)CCCCC2
Outgoing: 3.39

Incoming: // returns reported growth inhibition for input CSc1ccccc1NC(=O)c1onc(C)c1Cl
Outgoing: -5.06

Incoming: // returns reported growth inhibition for input CC12CN3CC(C)(CN(C1)C3c1ccc3ccccc3c1O)C2=O (stereo unspecified)
Outgoing: -10.8

Incoming: // returns reported growth inhibition for input COc1ccccc1N(CC(=O)N1CCCCCC1)S(C)(=O)=O
Outgoing: -11.6

Incoming: // returns reported growth inhibition for input O=C1CC(c2nc3ccccc3[nH]2)CN1c1cccc(C(F)(F)F)c1 (stereo unspecified)
Outgoing: -1.92

Incoming: // returns reported growth inhibition for input COc1ccc2c(=O)c(N3C(=O)c4ccccc4C3=O)c(C)oc2c1
Outgoing: -11.8

Incoming: // returns reported growth inhibition for input CN(C)S(=O)(=O)c1ccc(-c2ccccc2)cc1
Outgoing: -6.75

Incoming: // returns reported growth inhibition for input CCC(C)Sc1nc2c([nH]c3ccccc32)c(=O)n1C (stereo unspecified)
Outgoing: -16.9

Incoming: // returns reported growth inhibition for input COC(=O)c1c(C)nc(C)c2c(=O)oc3ccccc3c12
Outgoing: 3.52

Incoming: // returns reported growth inhibition for input O=C(NCc1cn2ccccc2n1)c1ccc(Br)o1
Outgoing: -7.75

Incoming: // returns reported growth inhibition for input CCOC(=O)N1CCC(NC(=O)C2CCCCN2S(=O)(=O)c2ccc(F)cc2)CC1 (stereo unspecified)
Outgoing: -12.5

Incoming: // returns reported growth inhibition for input CCCCC(=O)Nc1ncc2c(n1)CC(C)(C)CC2=O
Outgoing: -7.95

Incoming: // returns reported growth inhibition for input CCOCCCNC(=O)Cc1cc(=O)[nH]c(=O)[nH]1
Outgoing: -20.6

Incoming: // returns reported growth inhibition for input CCOC(=O)CNC(=O)C(NC(=O)C1CCC(C)CC1)C(C)CC (stereo unspecified)
Outgoing: 0.975

Incoming: // returns reported growth inhibition for input O=C(NCCN1CCCCC1)c1ccc2c(c1)OCCO2
Outgoing: -9.66

Incoming: // returns reported growth inhibition for input O=C(NC(Nc1ncccn1)C(=O)c1ccccc1)c1ccccc1 (stereo unspecified)
Outgoing: 5.63

====

So I've got a bunch of compounds here, and I need their RAM network inhibition values.
# experimentDescription: RAM signaling pathway blockade in yeast – S. cerevisiae, Pdr1DBD-CYC8 efflux-inhibited sensitized strain, primary screen (AID 1298);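 note: 0% = DMSO untreated cells without growth and 100% = 10 µM 1-NA-PP1 full growth; higher means more yeast growth rescued from 5-FOA killing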
# conditionSet: S. cerevisiae cbk1-as DSE1-URA3 strain, 5-FOA growth OD615, 2 d; at 50 µM; active compounds read high
Write the answer as a number in %, unit excluded.

Incoming: // returns reported RAM network inhibition for input COc1ccc(S(=O)(=O)n2cnc3cc(C)c(C)cc32)cc1
Outgoing: -1.04

Incoming: // returns reported RAM network inhibition for input Cc1ccc(-c2nc(NC(=O)CSc3nnc(C)s3)ns2)cc1
Outgoing: 2.66

Incoming: // returns reported RAM network inhibition for input CCOC(=O)Cn1c(=O)oc2cc(S(=O)(=O)N3CCc4ccccc43)ccc21
Outgoing: 2.93

Incoming: // returns reported RAM network inhibition for input CCOc1ccc(-c2cc(CCCC(=O)NCc3ccco3)no2)cc1
Outgoing: 1.77

Incoming: // returns reported RAM network inhibition for input CCc1ccc(-c2nc(CN3CCCC(C(=O)O)C3)c(C)o2)cc1 (stereo unspecified)
Outgoing: 2.81

Incoming: // returns reported RAM network inhibition for input COc1ccc(Cl)cc1N(CC(=O)N1CCC(C)CC1)S(C)(=O)=O
Outgoing: 1.72

====

So I've got a bunch of compounds here, and I need their viability increase values.
# experimentDescription: viability gain of MRP-1-high H69AR cells under doxorubicin, pilot screen, MRP-1 activator project, CellTiter-Glo, duplicate (AID 807);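 note: compound pretreatment 18-22 h then 72 h combined with doxorubicin; 0% = doxorubicin alone and 100% = vehicle without doxorubicin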
# conditionSet: H69AR viability with doxorubicin, CellTiter-Glo luminescence; at 10 µM; active compounds read high
Write the answer as a number in %, unit excluded.

Incoming: // returns reported viability increase for input Cc1oc2c(c1C(=O)NC(Cc1c[nH]c3ccccc13)C(=O)O)CCCC2 (centres undefined)
Outgoing: -3.61

Incoming: // returns reported viability increase for input COc1ccc(C2NC(=O)NC(C)=C2C(=O)Nc2cccc(C)c2C)cc1 (centres undefined)
Outgoing: -1.09

Incoming: // returns reported viability increase for input CCc1c(C)sc(NC(=O)c2cc(C3CC3)on2)c1C#N
Outgoing: 1.11

Incoming: // returns reported viability increase for input Cc1c(C(=O)N2CCC(C(N)=O)CC2)sc(N)c1C#N
Outgoing: -0.41

Incoming: // returns reported viability increase for input COc1ccc(CN2CCCC2C(=O)Nc2ccc(OC)c(OC)c2)cc1OC (centres undefined)
Outgoing: -2.8

Incoming: // returns reported viability increase for input CCOC(=O)Cn1c(CN2CCc3ccccc3C2)nc2c1c(=O)n(C)c(=O)n2C
Outgoing: -0.76

Incoming: // returns reported viability increase for input Cc1ccc(C2/C(=C(/O)c3ccccc3)C(=O)C(=O)N2CCN2CCOCC2)o1 (centres undefined)
Outgoing: -1.8

Incoming: // returns reported viability increase for input CN1CCN(C(=O)C2CC(=O)N(c3ccc(F)c(Cl)c3)C2)CC1 (centres undefined)
Outgoing: -0.63

Incoming: // returns reported viability increase for input CC(=O)NCCn1c(C)cc2ccccc21
Outgoing: -0.52

Incoming: // returns reported viability increase for input CCc1ccc(-c2nc(C(N)=O)c3[nH]c(=O)n(-c4ccccc4OC)c3n2)cc1
Outgoing: -8.43

Incoming: // returns reported viability increase for input Cc1ccccc1Cn1c(CN2CCN(c3ccc(F)cc3)CC2)nc2c1c(=O)n(C)c(=O)n2C
Outgoing: -3.7

Incoming: // returns reported viability increase for input O=C(c1ccc(Cn2c(=O)[nH]c3ccccc3c2=O)cc1)N1CCN(c2ccccn2)CC1
Outgoing: -2.12

Incoming: // returns reported viability increase for input O=C(Nc1nnc(-c2ccc3c(c2)CCCC3)o1)C1CCCCC1
Outgoing: -2.6

Incoming: // returns reported viability increase for input Nc1ccc(-c2nc3ccccc3[nH]2)cc1
Outgoing: -3.12

Incoming: // returns reported viability increase for input COc1ccc(O)c(-c2[nH]ncc2C(=O)c2ccccc2C)c1
Outgoing: -0.59

Incoming: // returns reported viability increase for input CCC(CC)C(=O)NCCc1cc2ccc(C)c(C)c2[nH]c1=O
Outgoing: -1.66

Incoming: // returns reported viability increase for input O=C(CC(=O)N1CCN(c2ccccn2)CC1)Nc1ccc2nc3n(c(=O)c2c1)CCCCC3
Outgoing: 0.08

Incoming: // returns reported viability increase for input CCOC(=O)C1Cn2c(nc3c(c2=O)C(C)(CC)Cc2ccccc2-3)S1 (centres undefined)
Outgoing: -2.18

Incoming: // returns reported viability increase for input CCCOc1nc2c(c(=O)n(C)c(=O)n2C)n1CCC
Outgoing: -2.13

Incoming: // returns reported viability increase for input Cc1cc2ccccc2n1CCNC(=O)C(C)C
Outgoing: -1.99

Incoming: // returns reported viability increase for input CCC(=O)Nc1ccc(C(=O)c2ccccc2)cc1
Outgoing: 2.97

Incoming: // returns reported viability increase for input CCN1CCN(C(=O)CSCc2nc(-c3ccc(OC)c(OC)c3)oc2C)CC1
Outgoing: -1.52

Incoming: // returns reported viability increase for input O=C1c2ccccc2-c2ncnc3c(N4CCOCC4)cc(N4CCOCC4)c1c23
Outgoing: -7.53

Incoming: // returns reported viability increase for input Cc1ccc(-c2nc(CS(=O)CC(=O)NC3CCCC3)c(C)o2)cc1 (centres undefined)
Outgoing: -4.16

Incoming: // returns reported viability increase for input COc1ccc(N2C(=O)c3ccccc3NC23CCCCC3)cc1
Outgoing: -1.34

Incoming: // returns reported viability increase for input O=C(CCNS(=O)(=O)c1cccc2nsnc12)NC1CCCc2ccccc21 (centres undefined)
Outgoing: -4.33

Incoming: // returns reported viability increase for input N#CC1=C(N)C(C#N)(C#N)C2(C(=O)Nc3ccccc32)C2CCCC=C12 (centres undefined)
Outgoing: -4.96

Incoming: // returns reported viability increase for input COCCNC(=O)Cn1cnc2sc(C)c(S(=O)(=O)N3CCC(C)CC3)c2c1=O
Outgoing: 0.05

Incoming: // returns reported viability increase for input CCCc1ccc(-c2ccc(C(=O)O)cc2)nc1
Outgoing: -3.24

Incoming: // returns reported viability increase for input Cc1c(C(=O)N2CCN(CCc3ccccc3)CC2)oc2ccccc12
Outgoing: -1.75

Incoming: // returns reported viability increase for input CCOC(=O)c1c(C)n(C)c2ccc(OCC(O)CN3CCN(C)CC3)cc12 (centres undefined)
Outgoing: -1.87

Incoming: // returns reported viability increase for input Cn1c(=O)c2c(nc(NC3CCCCC3)n2Cc2ccccc2)n(C)c1=O
Outgoing: -3.11

Incoming: // returns reported viability increase for input CCCn1c(CN2CCN(C(=O)OCC)CC2)nc2c1c(=O)n(C)c(=O)n2C
Outgoing: -2.59

Incoming: // returns reported viability increase for input CCOc1ccc(N2C(=O)c3ccccc3C2O)cc1 (centres undefined)
Outgoing: 1.68

Incoming: // returns reported viability increase for input CN1CCN(S(=O)(=O)c2cccc(S(=O)(=O)c3ccc(Cl)c(Cl)c3)c2)CC1
Outgoing: -2.58

Incoming: // returns reported viability increase for input COC(=O)C1=C(C)N=c2s/c(=C3\C(=O)Nc4ccccc43)c(=O)n2C1c1ccccc1 (centres undefined)
Outgoing: -4.83

Incoming: // returns reported viability increase for input Cc1cccc(NC(=O)c2cccnc2)c1
Outgoing: 1.56

Incoming: // returns reported viability increase for input CCCC(=O)N1CCN(c2ccc(C(=O)c3ccc(OC)c(Br)c3)cc2F)CC1
Outgoing: -1.74

Incoming: // returns reported viability increase for input CCn1cc(C(=O)N2CCN(Cc3ccc4c(c3)OCO4)CC2)c2cc(OC)c(OC)cc2c1=O
Outgoing: -5.64

Incoming: // returns reported viability increase for input COc1ccc(S(=O)(=O)N2CCN(C)CC2)cc1Br
Outgoing: -2.75

Incoming: // returns reported viability increase for input O=C(NCc1ccccc1Cl)c1cnc2n(c1=O)CCS2
Outgoing: -0.78

Incoming: // returns reported viability increase for input CCn1cc(C(=O)Nc2ccc3c(c2)OCCO3)c2cc(OC)c(OC)cc2c1=O
Outgoing: -6.05

Incoming: // returns reported viability increase for input CCOC(=O)CSc1nnc(Cn2c(=O)sc3ccccc32)n1-c1ccccc1C
Outgoing: -1.07

Incoming: // returns reported viability increase for input COc1cccc2c1N1C(=O)c3c(C(=O)O)cccc3C1CC2(C)C (centres undefined)
Outgoing: -2.18
